Biological target: CDK2/cyclinE (Homo sapiens)
Test: Inhibition of CDK enzyme activity (ADP-Glo kinase assay)
Details: 10 uM ATP, histone H1 substrate
For each of the molecules below, state its pIC50.
Answers are plain numbers, as −log10 of the molar value.

Cc1cc(-c2nc(-c3ccnc(N)c3F)ccc2O)nc(N)n1 [Example 71] = 9.52
Nc1nccc(-c2nc(-c3ccc(O)cc3F)ccc2O)n1 = 8.03
Nc1nccc(-c2nc(-c3ccc(O)c(F)c3)ccc2O)n1 = 7.84

For every item in the list below, what is its measured pIC50?
1. Nc1nccc(-c2nc(-c3ccnc(N)c3F)ccc2O)n1 [Example 66]
2. Nc1nccc(-c2nc(-c3ccncc3)ccc2O)n1

1. 9.00
2. 8.18

Please look at the items below and tell me pIC50 for each one, in order.
1. Nc1nccc(-c2ccc(O)c(-c3ccnc(N)n3)n2)n1 [Example 61]
2. CC(C)c1cnc(N)nc1-c1nc(-c2ccnc(N)c2F)ccc1O
3. CN1CCN(c2cc(-c3nc(-c4ccnc(N)c4F)ccc3O)nc(N)n2)CC1
4. Nc1nc(-c2nc(-c3ccnc(N)c3F)ccc2O)cc(C2CCNCC2)n1
5. CC(C)c1cc(-c2nc(-c3ccnc(N)c3F)ccc2O)nc(N)n1

1: 9.30; 2: 8.80; 3: 7.97; 4: 8.43; 5: 9.23
